experiment: Inhibition of Legionella pneumophila carbonic anhydrase 2 preincubated for 15 mins by stopped-flow CO2 hydrase assay
Here the recorded log10 of Ki is given for each entry.
Heads up: the numbers are on a log10 scale; they represent Ki in mM.

>>> df
                                   molecule  measurement_label  reading
0  O=S(=O)([O-])[O-].[Na+].[Na+] [SODIUM SULFATE ANHYDROUS]        log10 of Ki     1.98
1                   S [SODIUM HYDROSULFIDE]        log10 of Ki    -0.29
2  O=S(=O)(O)OOS(=O)(=O)O [SODIUM PERSULFATE]        log10 of Ki    -0.24

Prompt: Query (molecule): [I-].[Na+] [SODIUM IODIDE] ; field requested: log10 of Ki
Completion: 1.77

Prompt: Please give the result for O=C([O-])O.[Na+] [SODIUM BICARBONATE] too.
Completion: 0.82

Prompt: // next record N=C=[Se] [SODIUM ISOSELENOCYANATE]
Completion: -0.18

Prompt: Now this one: O=S([O-])O.[Na+] [SODIUM BISULFITE]
Completion: 0.86

Prompt: Also O=[Te](=O)(O)O [SODIUM TELLURATE] ?
Completion: -0.54

Prompt: Subsequent entry: [Br-].[Na+] [SODIUM BROMIDE]
Completion: 0.90

Prompt: How about O=NO [SODIUM NITRITE] ?
Completion: 0.76

Prompt: Check OB(O)c1ccccc1 [PHENYLBORONIC ACID] too.
Completion: -2.22

Prompt: Next molecule up: O=S(=O)(O)NS(=O)(=O)O [SODIUM IMINODISULFONATE]
Completion: -0.23

---

experiment: Inhibition of Legionella pneumophila carbonic anhydrase 1 preincubated for 15 mins by stopped-flow CO2 hydrase assay
pKi: −log10 of the molar value.
# binarize pKi: threshold 3 inclusive, high side Met, low side Not met

Below are worked cases with known answers.
>>> df
                                   compound  class_assignment
0             [Cl-].[Na+] [SODIUM CHLORIDE]               Met
1  CC(=O)Nc1nnc(S(N)(=O)=O)s1 [ACETAZOLAMIDE]               Met
2    O=BOB(O)OB(O)OB=O [SODIUM TETRABORATE]               Met
3          O=[Se](=O)(O)O [SODIUM SELENATE]           Not met
4                   S [SODIUM HYDROSULFIDE]               Met
5  O=C([O-])[O-].[Na+].[Na+] [SODIUM CARBONATE]           Not met
6   O=[N+]([O-])[O-].[Na+] [SODIUM NITRATE]           Not met
7       O=S([O-])O.[Na+] [SODIUM BISULFITE]           Not met

Prompt: Check this compound for pKi at or above 3: N=C=S [SODIUM ISOTHIOCYANATE]
Completion: Met

Prompt: Param item: [N-]=[N+]=[N-] [SODIUM AZIDE]
Completion: Met

---

// reported Ki for each item listed
assay: Inhibition of Legionella pneumophila carbonic anhydrase 2 preincubated for 15 mins by stopped-flow CO2 hydrase assay
Just the number please, in µM, no unit attached.

In [3]: df
Out[3]:
                        compound  reading
0  [Cl-].[Na+] [SODIUM CHLORIDE]      810
1        NS(=O)(=O)O [SULFAMATE]       13

Prompt: Bench note: what Ki did O=[Se](=O)(O)O [SODIUM SELENATE] show?
Completion: 660

Prompt: Also need O=[N+]([O-])[O-].[Na+] [SODIUM NITRATE] , thanks.
Completion: 30100

Prompt: What about CC(=O)Nc1nnc(S(N)(=O)=O)s1 [ACETAZOLAMIDE] ?
Completion: 0.036

Prompt: What about this compound? O=BOB(O)OB(O)OB=O [SODIUM TETRABORATE]
Completion: 550

Prompt: Moving on to O=C([O-])[O-].[Na+].[Na+] [SODIUM CARBONATE]
Completion: 4800

---

assay: Inhibition of Legionella pneumophila carbonic anhydrase 1 preincubated for 15 mins by stopped-flow CO2 hydrase assay
pKi: −log10 of the molar value.
Answer Not met if pKi is under 3, and Met if it is 3 or more.

Answered examples (6):
>>> print(df.to_string())
                                   compound  class_assignment
0  O=S(=O)([O-])[O-].[Na+].[Na+] [SODIUM SULFATE ANHYDROUS]           Not met
1     O=C([O-])O.[Na+] [SODIUM BICARBONATE]           Not met
2                      O=[As](O)(O)c1ccccc1               Met
3              [Br-].[Na+] [SODIUM BROMIDE]               Met
4        S=C(S)S [SODIUM CARBONOTRITHIOATE]               Met
5         O=[Te](=O)(O)O [SODIUM TELLURATE]               Met

Prompt: Given CCN(CC)C(=S)S [DITIOCARB SODIUM] , state whether its pKi is at least 3.
Completion: Met

Prompt: What about this compound? N#CO [SODIUM CYANATE]
Completion: Met

Prompt: What do you have for [I-].[Na+] [SODIUM IODIDE] ?
Completion: Met

Prompt: Now this one: OB(O)c1ccccc1
Completion: Met

Prompt: Thanks! And O=NO [SODIUM NITRITE] ?
Completion: Not met

Prompt: Again, but for F[B-](F)(F)F.[Na+] [SODIUM TETRAFLUOROBORATE]
Completion: Not met

Prompt: Input NS(N)(=O)=O [SULFAMIDE]
Completion: Met

Prompt: What about NS(=O)(=O)O [SULFAMATE] ?
Completion: Met

Prompt: Can you handle [O-][Cl+3]([O-])([O-])O [SODIUM PERCHLORATE] next?
Completion: Not met

---

assay: Inhibition of Legionella pneumophila carbonic anhydrase 2 preincubated for 15 mins by stopped-flow CO2 hydrase assay
Param label: returns 1 when Ki < 800 µM, returns -1 otherwise, including exact equality.

>>> df
                                   compound  class_assignment
0                     N#CO [SODIUM CYANATE]                -1
1             [N-]=[N+]=[N-] [SODIUM AZIDE]                 1
2              [F-].[Na+] [SODIUM FLUORIDE]                 1
3  O=P(O)(O)OP(=O)(O)O [SODIUM PYROPHOSPHATE]                -1
4  [O-][Cl+3]([O-])([O-])O [SODIUM PERCHLORATE]                -1

Prompt: Determine whether this compound shows Ki lower than 800 µM (ties excluded): S=C(S)S [SODIUM CARBONOTRITHIOATE]
Completion: 1

Prompt: Further, for CCN(CC)C(=S)S [DITIOCARB SODIUM] ?
Completion: 1

Prompt: Item: F[B-](F)(F)F.[Na+] [SODIUM TETRAFLUOROBORATE]
Completion: -1

Prompt: Moving on to N=C=S [SODIUM ISOTHIOCYANATE]
Completion: -1

Prompt: Here is the next compound: O=[As](O)(O)c1ccccc1
Completion: 1

---

assay: Inhibition of Legionella pneumophila carbonic anhydrase 1 preincubated for 15 mins by stopped-flow CO2 hydrase assay
Readings of Ki for the listed molecules
State the result as a value with its unit after it.

Solved entries:
>>> df
                                   molecule  measurement_label  reading
0  O=P(O)(O)OP(=O)(O)O [SODIUM PYROPHOSPHATE]                 Ki   940 µM
1  O=S(=O)(O)NS(=O)(=O)O [SODIUM IMINODISULFONATE]                 Ki  1170 µM

Here is another molecule to look at.
Prompt: Which measured Ki value corresponds to [F-].[Na+] [SODIUM FLUORIDE] ?
Completion: 910 µM

These entries and their values trace back to ChEMBL document CHEMBL3112489.
